Test system: Propionibacterium acnes
method summary: Inhibition of P. acnes (zone of inhibition)
Assay type: cell-based
condition info: P. acnes; Conc. of the sample 10%
Counter-ions that a name gives are not always drawn.
measurement label: Zone of inhibition (mm)
Kindly provide the numeric value in mm only, without the unit symbol.

// worked examples, Zone of inhibition included
Incoming: Using the record for CCC[C@@H]1C[C@@H](C(=O)N[C@@H]([C@H]2O[C@H](SC)[C@H](O)[C@@H](O)[C@H]2O)[C@H](C)Cl)N(C)C1 [Clindamycin, reference compound] , report its Zone of inhibition.
Outgoing: 20

Incoming: What about this molecule? CN(C)CCNC(=O)CCCCC1CCSS1 (racemic) [LA Plus maleate]
Outgoing: 11

Incoming: What about this molecule? CN(C)CCNC(=O)CCCCC1CCSS1.O=C(O)/C=C\C(=O)O (stereo not drawn) [R(+)LA Plus maleate]
Outgoing: 15

Incoming: What about this molecule? CN(C)CCNC(=O)CCCCC1CCSS1.O=C(O)/C=C/C(=O)O (racemic) [LA Plus fumarate]
Outgoing: 10

Please look at the following molecule next.
Incoming: Using the record for O=C(O)CCCCC1CCSS1 (racemic) [α-Lipoic acid, Alpha Lipoic acid, reference compound] , report its Zone of inhibition.
Outgoing: 8
